assayed_system: KRAS WT (Homo sapiens, UniProt P01116+P62937)
Sequence (P01116 1-169 isoform P01116-2 limits assumed): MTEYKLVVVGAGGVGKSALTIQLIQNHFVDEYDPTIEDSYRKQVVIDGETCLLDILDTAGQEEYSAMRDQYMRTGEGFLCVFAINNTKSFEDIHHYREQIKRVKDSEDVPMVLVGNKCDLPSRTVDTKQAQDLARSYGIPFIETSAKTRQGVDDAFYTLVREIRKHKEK
Sequence (P62937 whole entry): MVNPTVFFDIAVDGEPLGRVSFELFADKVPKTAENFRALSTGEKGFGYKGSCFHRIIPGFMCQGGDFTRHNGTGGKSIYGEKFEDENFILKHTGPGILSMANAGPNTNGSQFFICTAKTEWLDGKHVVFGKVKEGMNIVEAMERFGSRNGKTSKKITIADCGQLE
assay_method_text: Ras-Raf disruption/FRET/MOA assay, KRAS WT
Assay type: biochemical
run_conditions: disruption of BRAF RBD binding, with Cyclophilin A; read-out: KRAS WT FRET IC50
property_name: IC50

# per-item lookup of IC50; items listed below
1. CCn1c(-c2cnccc2COC)c2c3cc(ccc31)-c1cc(O)cc(c1)C[C@H](NC(=O)[C@H](C(C)C)N(C)C(=O)CN(C)C(=O)[C@H]1CN1S(C)(=O)=O)C(=O)N1CCC[C@H](N1)C(=O)OCC(C)(C)C2 (some centres unmarked) [Example 36]
2. CCn1c(-c2cccnc2[C@H](C)OC)c2c3cc(ccc31)-c1cc(O)cc(c1)C[C@H](NC(=O)[C@H](C(C)C)N1CCC3(CCN(C(=O)[C@H]4CN4)CC3)C1=O)C(=O)N1CCC[C@H](N1)C(=O)OCC(C)(C)C2 [Compound 196]
3. CCn1c(-c2cccnc2[C@H](C)OC)c2c3cc(ccc31)-c1csc(n1)C[C@H](NC(=O)[C@H](C(C)C)N(C)C(=O)N1C3CCC1CN(C(=O)[C@H]1CN1)C3)C(=O)N1CCC[C@H](N1)C(=O)OCC(C)(C)C2 [Compound 303]
4. CCn1c(-c2cccnc2[C@H](C)OC)c2c3cc(ccc31)-c1cc(O)cc(c1)C[C@H](NC(=O)[C@H](C(C)C)N1CO[C@@]3(CCN(C(=O)[C@H]4CN4)C3)C1=O)C(=O)N1CCC[C@H](N1)C(=O)OCC(C)(C)C2 [Compound 232]
5. CCn1c(-c2cccnc2[C@H](C)OC)c2c3cc(ccc31)-c1cc(O)cc(c1)C[C@H](NC(=O)[C@H](C(C)C)N1CC[C@@]3(CCCN(C(=O)[C@H]4CN4)C3)C1=O)C(=O)N1CCC[C@H](N1)C(=O)OCC(C)(C)C2 [Compound 199]
6. CCn1c(-c2cccnc2[C@H](C)OC)c2c3cc(ccc31)-c1cc(O)cc(c1)C[C@H](NC(=O)[C@H](C(C)C)N1CC[C@@]3(CCCN(C(=O)[C@@H]4CN4)C3)C1=O)C(=O)N1CCC[C@H](N1)C(=O)OCC(C)(C)C2 [Compound 191]
7. CCn1c(-c2cccnc2[C@H](C)OC)c2c3cc(ccc31)-c1cc(O)cc(c1)C[C@H](NC(=O)[C@H](C(C)C)N(C)C(=O)N1CCN(C(=O)[C@@H]3CN3)CC1)C(=O)N1CCC[C@H](N1)C(=O)OCC(C)(C)C2 (atropisomer, axis not shown) [Compound 197]

["10 to 100 nM", "10 to 100 nM", "100 to 1000 nM", "100 to 1000 nM", "100 to 1000 nM", "10 to 100 nM", "10 to 100 nM"]

Entry CCn1c(-c2cnccc2COC)c2c3cc(ccc31)-c1cccc(c1)C[C@H](NC(=O)[C@H](C(C)C)N(C)C(=O)[C@@H]1CC[C@@H](N=C=Nc3ccc(OC)cc3)C1)C(=O)N1CCC[C@H](N1)C(=O)OCC(C)(C)C2 [70 A and B] has what IC50?
> 10000 nM

----------
So I've got a bunch of molecules here, and I need their IC50 values.
assayed_system: KRAS G12D (Homo sapiens, UniProt P01116+P62937, G12D)
Sequence (P01116 1-169 isoform P01116-2 G12D limits assumed, one chain of several): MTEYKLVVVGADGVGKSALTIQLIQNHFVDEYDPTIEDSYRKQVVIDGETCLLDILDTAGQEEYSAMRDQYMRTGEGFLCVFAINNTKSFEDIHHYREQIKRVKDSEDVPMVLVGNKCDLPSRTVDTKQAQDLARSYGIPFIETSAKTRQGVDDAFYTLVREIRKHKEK
assay_method_text: Ras-Raf disruption/FRET/MOA assay, KRAS G12D
Format: biochemical
run_conditions: disruption of BRAF RBD binding, with Cyclophilin A; read-out: KRAS G12D FRET IC50

Solved cases below.
>>> experimental_result("CCn1c(-c2cccnc2[C@H](C)OC)c2c3cc(ccc31)-c1csc(n1)C[C@H](NC(=O)[C@H](C(C)C)N(C)C(=O)N1C3CCC1CN(C(=O)[C@@H]1CN1)C3)C(=O)N1CCC[C@H](N1)C(=O)OCC(C)(C)C2 [Compound 304]")
"0.1 to 1 µM"
>>> experimental_result("CCn1c(-c2cccnc2[C@H](C)OC)c2c3cc(ccc31)-c1cc(CF)cc(c1)C[C@H](NC(=O)[C@H](C1CCCC1)N1CC[C@]3(CCN(C(=O)[C@@H]4N[C@@H]4C4CC4)C3)C1=O)C(=O)N1CCC[C@H](N1)C(=O)OCC(C)(C)C2 [Compound 321]")
"0.1 to 1 µM"
>>> experimental_result("CCn1c(-c2cnccc2COC)c2c3cc(ccc31)-c1cc(O)cc(c1)C[C@H](NC(=O)[C@H](C(C)C)N(C)C(=O)CN(C)C(=O)[C@@H]1[C@H](C)N1[S@@+]([O-])C(C)(C)C)C(=O)N1CCC[C@H](N1)C(=O)OCC(C)(C)C2 (stereo partly shown) [Compound 54]")
"0.1 to 1 µM"
>>> experimental_result("CCn1c(-c2cccnc2[C@H](C)OC)c2c3cc(ccc31)-c1csc(n1)C[C@H](NC(=O)[C@H](C(C)C)N(C)C(=O)N1CCC[C@H](N(C)C(=O)[C@H]3CN3)C1)C(=O)N1CCC[C@H](N1)C(=O)OCC(C)(C)C2 (atropisomer, axis not shown) [Compound 290]")
"1 to 10 µM"
>>> experimental_result("CCn1c(-c2cnccc2COC)c2c3cc(ccc31)-c1cc(O)cc(c1)C[C@H](NC(=O)[C@H](C(C)C)N(C)C(=O)CN(C)C(=O)[C@H]1[C@@H](C3CC3)N1[S@+]([O-])C(C)(C)C)C(=O)N1CCC[C@H](N1)C(=O)OCC(C)(C)C2 (stereo partly shown) [Compound 52]")
"0.1 to 1 µM"

Required: IC50, one value per molecule below.
1. CCn1c(-c2cnccc2COC)c2c3cc(ccc31)-c1cc(O)cc(c1)C[C@H](NC(=O)[C@H](C(C)C)N(C)C(=O)CN(C)C(=O)C1CN1S(C)(=O)=O)C(=O)N1CCC[C@H](N1)C(=O)OCC(C)(C)C2 (stereo partly shown) [Compound 13]
2. CCn1c(-c2cccnc2[C@H](C)OC)c2c3cc(ccc31)-c1cc(O)cc(c1)C[C@H](NC(=O)[C@H](C(C)C)N1CC[C@@]3(CCCN(C(=O)[C@H]4CN4)C3)C1=O)C(=O)N1CCC[C@H](N1)C(=O)OCC(C)(C)C2 [Compound 199]

1. 0.1 to 1 µM
2. 0.1 to 1 µM

Would you be so kind as to report IC50 for each listed record?
1. CCn1c(-c2cnccc2COC)c2c3cc(ccc31)-c1cc(O)cc(c1)C[C@H](NC(=O)[C@H](C(C)C)N(C)C(=O)CN(C)C(=O)[C@H]1CN1C(C)=O)C(=O)N1CCC[C@H](N1)C(=O)OCC(C)(C)C2 [Example 34]
2. CCn1c(-c2cccnc2[C@H](C)OC)c2c3cc(ccc31)-c1cc(O)cc(c1)C[C@H](NC(=O)[C@H](C(C)C)N(C)C(=O)C1CC3(C1)CN(C(=O)[C@H]1CN1)C3)C(=O)N1CCC[C@H](N1)C(=O)OCC(C)(C)C2 [Compound 181]
3. CCn1c(-c2cccnc2[C@H](C)OC)c2c3cc(ccc31)-c1cccc(c1)C[C@H](NC(=O)[C@H](C(C)C)N1CC[C@H](CN=C=NCCOC)C1)C(=O)N1CCC[C@H](N1)C(=O)OCC(C)(C)C2 [Compound 122]

1: 0.1 to 1 µM; 2: 0.1 to 1 µM; 3: 1 to 10 µM

Please give IC50 for each item listed below.
1. CCn1c(-c2cnccc2COC)c2c3cc(ccc31)-c1cc(O)cc(c1)C[C@H](NC(=O)[C@@H](CNC1=NCCO1)C(C)C)C(=O)N1CCC[C@H](N1)C(=O)OCC(C)(C)C2 [Compound 29]
2. CCn1c(-c2cccnc2[C@H](C)OC)c2c3cc(ccc31)-c1cc(cc(C(F)F)c1)C[C@H](NC(=O)[C@H](C1CCCC1)N1CC[C@]3(CCN(C(=O)[C@H]4CN4)C3)C1=O)C(=O)N1CCC[C@H](N1)C(=O)OCC(C)(C)C2 [Compound 233]
3. CCn1c(-c2cccnc2[C@H](C)OC)c2c3cc(ccc31)-c1cc(O)cc(c1)C[C@H](NC(=O)[C@H](C(C)C)N1CCC3(CCN(C(=O)[C@@H]4CN4)CC3)C1=O)C(=O)N1CCC[C@H](N1)C(=O)OCC(C)(C)C2 [Compound 195]
4. CCCN=C=NCCC(=O)N(C)[C@H](C(=O)N[C@H]1Cc2cccc(c2)-c2ccc3c(c2)c(c(-c2cnccc2COC)n3CC)CC(C)(C)COC(=O)[C@@H]2CCCN(N2)C1=O)C(C)C [22 A and B]
5. CCn1c(-c2cccnc2[C@H](C)OC)c2c3cc(ccc31)-c1cc(O)cc(c1)C[C@H](NC(=O)[C@H](C(C)C)N1CC[C@@]3(CCN(C[C@H]4CN4)C3)C1=O)C(=O)N1CCC[C@H](N1)C(=O)OCC(C)(C)C2 (single isomer, unassigned) [Example 139]
6. CCn1c(-c2cccnc2[C@H](C)OC)c2c3cc(ccc31)-c1cc(O)cc(c1)C[C@H](NC(=O)[C@H](C(C)C)N1CC[C@@]3(CCCN(C(=O)[C@@H]4CN4)C3)C1=O)C(=O)N1CCC[C@H](N1)C(=O)OCC(C)(C)C2 [Compound 191]

1 to 10 µM
1 to 10 µM
1 to 10 µM
1 to 10 µM
0.01 to 0.1 µM
0.1 to 1 µM
